Molecular target: T1, IGF-IIE (amino acids 1-104 of pro-IGF-II) (human, UniProt P01344 25-128)
T1 construct: Biotinylated in the selections; also called IGF-IIE (104aa)
T1 sequence (P01344 25-128): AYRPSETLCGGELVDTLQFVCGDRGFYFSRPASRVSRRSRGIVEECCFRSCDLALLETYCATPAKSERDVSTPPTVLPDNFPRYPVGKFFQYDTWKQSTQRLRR
Test: SPR, IgG on Protein G', then ligand, then BP; competitor BP2; 0 = no significant competition, 5 = competes strongly
property.name: competition score (score 0-5)
Record the value in score 0-5, omitting the unit from your answer.

binder | competition score / score 0-5
M0072-C06 IgG (parental) (antibody, V domains shown) VH: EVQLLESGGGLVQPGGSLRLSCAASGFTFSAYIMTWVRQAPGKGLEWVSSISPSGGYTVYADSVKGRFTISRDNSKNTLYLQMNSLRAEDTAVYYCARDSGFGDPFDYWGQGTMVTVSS VL: DIQMTQSPSSLSASVGDRVTITCRASQSIRNYLNWYQQKPGKAPKLLIYAASKLEDGVPSRFSGSGTGTDFTLTIRSLQPEDFASYFCQQSYSSPGITFGPGTKVEIK | 2
M0070-H08 IgG (parental) (antibody, V domains shown) VH: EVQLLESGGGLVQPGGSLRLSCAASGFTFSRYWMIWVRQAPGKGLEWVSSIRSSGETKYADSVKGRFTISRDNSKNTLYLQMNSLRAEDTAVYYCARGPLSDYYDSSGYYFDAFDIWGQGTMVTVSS VL: DIQMTQSPSSLSASAGDRVTITCRASQSISSYLNWYQQKPGKAPNLLIYTTSNLQGGVPSRFSGSGSGTDFTLTISSLQPEDFATYYCQQGYSFPLTFGGGTKVEIK | 2
M0064-E04 IgG (parental, non-germlined) (antibody, V domains shown) VH: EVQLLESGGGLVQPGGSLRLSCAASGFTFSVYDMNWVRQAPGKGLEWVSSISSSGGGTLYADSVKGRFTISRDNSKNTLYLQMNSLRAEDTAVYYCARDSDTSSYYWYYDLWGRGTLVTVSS VL: DIQMTQSPSSLSASVGDRVTITCQASHDISNYLNWYQQKPGKAPKLLIYAASRLQSGVPSRFSGGGSGTDFSLTISSLQAEDFATYYCQQSYSFPRTFGQGTNLEIK | 4

Request: Name the reported competition score value associated with the binder M0063-F02 IgG (parental) (antibody, V domains shown) VH: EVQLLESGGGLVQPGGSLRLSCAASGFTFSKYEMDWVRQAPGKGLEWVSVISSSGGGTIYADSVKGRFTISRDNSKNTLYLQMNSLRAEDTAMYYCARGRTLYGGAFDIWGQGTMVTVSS VL: DIQMTQSPSSLSASVGDRVTITCRASQPINTYLNWYQQRPGKAPRILIYTSSTLQSGVPSRFSGSGSGTDFTLTISSVQPEDFATYYCQQSYSFPLTFGGGTKVEIK
Response: 1

Request: Name the reported competition score value associated with the binder M0064-F02 IgG (parental, non-germlined) (antibody, V domains shown) VH: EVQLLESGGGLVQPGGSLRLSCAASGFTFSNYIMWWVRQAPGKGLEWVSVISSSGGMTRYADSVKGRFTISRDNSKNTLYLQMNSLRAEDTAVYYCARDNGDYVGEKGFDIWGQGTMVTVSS VL: DIQMTQSPSSLSASVGDRVTITCRASQSISNYLNWYQQKPGKAPKLLIYTASTLQSGVPSRFSGSASGTDFTLTINSLQPEDFATYSCQQSYNSPWTFGQGTKVEIK
Response: 4

Request: Name the reported competition score value associated with the binder M0072-G06 IgG (parental) (antibody, V domains shown) VH: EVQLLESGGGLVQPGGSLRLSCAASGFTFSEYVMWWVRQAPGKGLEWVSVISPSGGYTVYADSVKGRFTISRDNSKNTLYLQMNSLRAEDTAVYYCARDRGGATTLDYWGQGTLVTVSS VL: DIQMTQSPSTLSASVGDRVTITCRASQTISSWLAWYQQKPGKAPKLMIYKAASLGSEVPSRFSGSGSGTEFTLTISSLQPEDFSTYYCQQYKTYPVTFGQGTRLEIK
Response: 2

Data credit: patent US20110165145A1
